# CONDITION SET: in isobutanol, 283.15 K
MEASURE: solubility (mole fraction)
# output: bare number, no unit

In: Find the recorded solubility (mole fraction) belonging to O=C(O)C=CC(=O)O.OCCOCCN1CCN(C2=Nc3ccccc3Sc3ccccc32)CC1.OCCOCCN1CCN(C2=Nc3ccccc3Sc3ccccc32)CC1 and report it.
Out: 6.85e-05

----------
# CONDITION SET: in DMF, 308.15 K
MEASURE: solubility (mole fraction)
A bare number is all that is needed in reply.

In: // solubility (mole fraction) lookup, key: O=C(O)C=CC(=O)O.OCCOCCN1CCN(C2=Nc3ccccc3Sc3ccccc32)CC1.OCCOCCN1CCN(C2=Nc3ccccc3Sc3ccccc32)CC1
Out: 0.00684
